tested on: SNB-75; assay: NCI tumour cell line growth inhibition, 48 h
Calls of active or inactive are those of the source. Cut-off read from the data, not from the text of the source: active = GI50 up to about 1.1 µM and inactive = higher.
assayReadout: GI50

CCOC(=O)C1C(=O)CC(C)(O)C(C(=O)OCC)C1c1ccc(O)c(OC)c1 (stereo unspecified)    > 100 µM (inactive)
Cc1ccc(NC(=O)CC(=O)n2nc(C)c(/N=N/c3ccccc3C(=O)O)c2C)cc1    89.1 µM (inactive)
COC(=O)C1=C(O)c2cc(OC)c(OC)c(OC)c2C(c2ccc3c(c2)OCO3)[C@@H]1C(=O)OC (stereo partly specified)    4.07 µM (inactive)
N=c1[nH]cnc2c1nnn2C1C=CC(COS(N)(=O)=O)C1 (stereo unspecified)    4.05 µM (inactive)
O=C1NC(=S)NC(=O)C1=C(O)Nc1ccccc1    27.7 µM (inactive)
CN(C)CCCn1c2c3ccccc3ccc2c2oc(=O)c3ccccc3c21    2.48 µM (inactive)
S=C1NC(c2ccccc2)NC(c2ccccc2)S1 (stereo unspecified)    > 100 µM (inactive)
CC(C)(C)OC(=O)c1ccc(NCC2=C(Br)C(=O)C=CC2=O)cc1    39.5 µM (inactive)
COc1cccc2c1Cc1cc(-c3ccccc3)[n+](C)n1-2    20 µM (inactive)
C=C1CC(COc2cc(=O)oc3ccccc23)(c2ccccc2)OC1=O (stereo unspecified)    4.25 µM (inactive)
O=C(O)c1ccc(/N=N/c2cc(S(=O)(=O)O)c3cccnc3c2O)cc1    > 100 µM (inactive)
